Known EC50 of a selection of compounds
test system: A/Texas/04/2009 (H1N1); test: microbe, parasite or virus in culture

>  <COMPOUND>
C[C@@H](c1ccccc1)n1nnnc1[C@H](c1ccsc1)N1CCC(n2c(=O)[nH]c3ccccc32)CC1 [Compound 12a]

>  <EC50>
1100 nM

$$$$
>  <COMPOUND>
O=c1[nH]c2ccccc2n1C1CCN(C(CCc2ccccc2)c2nnnn2-c2ccc3c(c2)OCCO3)CC1 (centres unmarked)

>  <EC50>
3500 nM

$$$$

###

system: A/Washington/29/2009 (H1N1); assay: microbe, parasite or virus in culture

>  <MOLECULE>
O=c1[nH]c2ccccc2n1C1CCN(C(CCc2ccccc2)c2nnnn2-c2ccc3c(c2)OCCO3)CC1 (centres unmarked)

>  <QUANTITY UNIT>
µM

>  <EC50>
1.6

$$$$
>  <MOLECULE>
C[C@@H](c1ccccc1)n1nnnc1[C@H](c1ccsc1)N1CCC(n2c(=O)[nH]c3ccccc32)CC1 [Compound 12a]

>  <QUANTITY UNIT>
µM

>  <EC50>
0.9

$$$$

###

test system: A/Denmark/528/2009 (H1N1); experiment: microbe, parasite or virus in culture
pEC50: −log10 of the molar value.

>  <MOLECULE>
C[C@@H](c1ccccc1)n1nnnc1[C@H](c1ccsc1)N1CCC(n2c(=O)[nH]c3ccccc32)CC1 [Compound 12a]

>  <pEC50>
6.05

$$$$
